assay: Oral bioavailability in beagle dogs; type: in vivo; details: dog, plasma, oral 20 mg/kg (10 mg/ml), mean n=3
attribute measured: half-life (h)
Entry rule: numbers only, all in h.

Tell me the measured half-life of [2H]C([2H])([2H])NCc1cc(-c2ccccc2F)n(S(=O)(=O)c2ccc(F)cc2)c1 , please. 18.3

----------
assay: Pharmacokinetic profile in beagles, single oral dose; format: in vivo, beagle dogs; details: male, dog, plasma; beagle, oral single dose 3 mg/kg, mean n=3
attribute measured: Cmax (ng/mL)
Entry rule: numbers only, all in ng/mL.

Tell me the measured Cmax of [2H]C([2H])([2H])NCc1cc(-c2ccccc2F)n(S(=O)(=O)c2ccc(F)cc2)c1 , please. 1430

meta.source: patent US20250051275A1
